Target: Nitric oxide synthase 1 (Rattus norvegicus, UniProt P29476)
Sequence (P29476 whole entry): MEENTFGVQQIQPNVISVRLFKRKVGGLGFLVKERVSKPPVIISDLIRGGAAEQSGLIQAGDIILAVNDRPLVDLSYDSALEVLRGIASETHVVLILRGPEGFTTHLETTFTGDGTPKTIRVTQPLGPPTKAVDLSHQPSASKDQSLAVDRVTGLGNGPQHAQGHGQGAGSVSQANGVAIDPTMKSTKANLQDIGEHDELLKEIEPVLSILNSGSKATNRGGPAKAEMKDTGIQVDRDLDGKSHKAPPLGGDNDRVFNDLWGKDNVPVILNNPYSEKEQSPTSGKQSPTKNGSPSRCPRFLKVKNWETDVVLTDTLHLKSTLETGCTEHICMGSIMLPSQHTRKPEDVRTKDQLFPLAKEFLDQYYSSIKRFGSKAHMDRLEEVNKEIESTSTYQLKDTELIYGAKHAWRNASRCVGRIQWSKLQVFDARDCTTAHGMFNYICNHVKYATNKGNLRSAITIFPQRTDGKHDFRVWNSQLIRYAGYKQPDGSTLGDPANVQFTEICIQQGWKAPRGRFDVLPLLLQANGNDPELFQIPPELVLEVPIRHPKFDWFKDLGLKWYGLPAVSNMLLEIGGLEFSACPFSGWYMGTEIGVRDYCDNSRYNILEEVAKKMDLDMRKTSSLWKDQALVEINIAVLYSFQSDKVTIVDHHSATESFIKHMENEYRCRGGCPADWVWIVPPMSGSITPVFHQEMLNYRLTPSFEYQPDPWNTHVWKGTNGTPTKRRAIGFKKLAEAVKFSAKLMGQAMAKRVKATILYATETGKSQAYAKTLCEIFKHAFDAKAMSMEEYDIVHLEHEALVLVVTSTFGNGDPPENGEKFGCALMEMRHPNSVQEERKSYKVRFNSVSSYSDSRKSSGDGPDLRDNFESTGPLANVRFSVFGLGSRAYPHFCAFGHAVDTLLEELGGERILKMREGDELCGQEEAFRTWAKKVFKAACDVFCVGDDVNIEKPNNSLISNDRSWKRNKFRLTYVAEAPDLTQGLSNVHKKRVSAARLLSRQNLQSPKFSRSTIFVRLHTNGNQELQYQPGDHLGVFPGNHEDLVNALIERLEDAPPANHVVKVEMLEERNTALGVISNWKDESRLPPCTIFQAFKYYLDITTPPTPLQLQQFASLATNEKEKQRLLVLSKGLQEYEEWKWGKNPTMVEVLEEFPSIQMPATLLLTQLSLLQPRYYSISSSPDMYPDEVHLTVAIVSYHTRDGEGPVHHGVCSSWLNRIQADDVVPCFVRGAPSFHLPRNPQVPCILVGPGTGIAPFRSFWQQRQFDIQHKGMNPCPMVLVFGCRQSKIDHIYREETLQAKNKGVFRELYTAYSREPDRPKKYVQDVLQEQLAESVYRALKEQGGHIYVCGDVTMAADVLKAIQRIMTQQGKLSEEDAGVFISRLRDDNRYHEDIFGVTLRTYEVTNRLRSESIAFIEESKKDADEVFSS
Assay: Inhibition of rat neuronal NOS
Mark label 1 for IC50 under 20 µM, label 0 if at or over.

See these solved cases before continuing.
Fc1ccc2[nH]ncc2c1	label 0
Ic1cccc2[nH]ncc12	label 1
Clc1ccc2cn[nH]c2c1	label 0
Fc1cccc2[nH]ncc12	label 0

q: IC50 strictly < 20 µM for this compound? Clc1ccc2[nH]ncc2c1
a: label 0

q: Now the compound Brc1ccc2cn[nH]c2c1
a: label 1

q: Now the compound Brc1cccc2[nH]ncc12
a: label 1

q: Now the compound Ic1ccc2[nH]ncc2c1
a: label 0

====

System: Mus musculus
Assay: Antinociceptive effect in mouse assessed as number of writhes for 10 mins at 50 mg/kg, ip
Format: functional
Conditions: route intraperitoneal
The entries below come with measured Activity values attached.

Worked examples, 3 compounds total:
Clc1cccc2cn[nH]c12	12.1
O=[N+]([O-])c1cccc2[nH]ncc12	11.8
N=C(N)NCCC[C@H](N)C(=O)O	22.9

Would you kindly look at the next entry?
q: So what's the measured Activity for this one? Brc1cccc2[nH]ncc12
a: 10.8

====

The entries below come with measured Activity values attached.
System: Mus musculus
Assay: Antinociceptive effect in acetic acid-induced mouse assessed as number of writhes for 10 mins at 12.5 mg/kg, ip
Format: functional
Settings: route intraperitoneal

Worked examples, 3 compounds total:
Clc1cccc2cn[nH]c12	15
CC(=O)Oc1ccccc1C(=O)O	7.6
Brc1cccc2[nH]ncc12	11

q: So what's the measured Activity for this one? O=[N+]([O-])c1cccc2[nH]ncc12
a: 18
